# Assay System: T1, human GITR-His (human, UniProt Q9Y5U5 26-161)
# T1 construct: Bought from Acro biosystems; also called GITR-His (Acro biosystems); antigen GITR-His
# T1 sequence: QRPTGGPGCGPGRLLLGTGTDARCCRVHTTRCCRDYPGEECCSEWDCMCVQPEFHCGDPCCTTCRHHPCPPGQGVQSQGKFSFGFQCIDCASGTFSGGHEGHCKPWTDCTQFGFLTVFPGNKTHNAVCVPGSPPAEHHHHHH
# Assay Details: PE-ELISA, sample OD against reference OD
Measurement Type: Ratio (+/-)

• Nb-14 (VHH, Tested as crude extract from E. coli (osmotic shock)) VHH: QVQLQEFGGGSVQAGGSLRLSCVASGFTFSNYCMGWFRQDPGKEREAVARIFVDGSTRYADAVKGRFTISKDNAKNTLYVQINSLKPEDTAMYYCTTPFPWTLCVDGPGAYKYWGQGTQVTVSS = 4
• Nb-15 (VHH, Tested as crude extract from E. coli (osmotic shock)) VHH: QVQLQESGGGSVQAGGSLRLSCVVFGNIFRNYCMAWFRQAPGKEREGVVVIYTGGGSTYYADSVKGRFTISQDNAKNTVYLQMNSLKHEDTAMYYCAADQTTRYSSDYVNVGPCDMDSWGKGTQVTVSS = 5.04
• Nb-06 (VHH, Tested as crude extract from E. coli (osmotic shock)) VHH: QVQLQESGGGSVQAGGSLRLSCAASGYAYTRNCMGWFRQAPGKEREEVATINLGGGSTYYADSVKGRFAISQDNAKNTVYLQMNNLKPEDTAMYYCAAIAQYGGSLCSNFGWYNLWGQGTQVTVSS = 3.31
